- Protocol details: S. cerevisiae growth modulation with rapamycin, primary screen, strain BY4716, OD600, 96 h (AID 1091); note: test concentration not given here
- Stated conditions: higher = more signal, called active from +8 up or from −8 down
Parameter: z-score
Form: value (number only, do not type unit).

Use these answered entries as a reference point.
COC(=O)[C@@]1(Cc2ccc(F)cc2)[C@H]2c3cc(C(=O)N(C)C)n(Cc4ccc(OC)c(OC)c4)c3C[C@H]2CN1C(=O)c1ccccc1 : -0.249
CC1CC/C=C\[C@H]2OC34C=CCN(C(C)C)C(=O)[C@H]3N(CCCO)C(=O)[C@@H]4C2C(=O)O1 (stereo not given in full) : -0.24
O=C(CS)NCCCCCNC(=O)[C@@H]1C[C@@H]2C(=O)N[C@@H](Cc3ccccc3)C(=O)N2[C@@H]1c1ccc(O)cc1 : 0.858

Q. Provide only the value of recorded z-score for O=C(NN=C1C[C@@H](O)[C@@H](O)[C@@H]2[C@@H]3C(=O)N(c4cccc(Oc5ccccc5)c4)C(=O)[C@@H]3CC[C@H]12)OCc1ccccc1
A. -0.669

Q. Provide only the value of recorded z-score for CC(=O)OC[C@H]1O[C@H](C#CCCCc2ccccc2)C=C[C@@H]1OC(C)=O
A. -0.967

Q. Provide only the value of recorded z-score for COc1ccc(O[C@H]2C=C[C@@H](c3ccccc3)O[C@@H]2CON=C[C@@H](C)[C@H](OCc2ccccc2)C(C)C)cc1
A. 0.314

Q. Provide only the value of recorded z-score for C#C[C@@H]1Oc2ccccc2S(=O)(=O)N2CCC[C@H]12
A. -2.55

Q. Provide only the value of recorded z-score for O=C1[C@H]2[C@H]3[C@H](O)[C@H](O)CC(=NO[C@@H]4O[C@H](CO)[C@@H](O)[C@H](O)[C@H]4O)[C@H]3CC[C@H]2C(=O)N1Cc1ccc2c(c1)OCO2
A. -0.297

Q. Provide only the value of recorded z-score for Cc1cc2c(nc1C)CCCN2CC(C)ON=C1[C@H]2CCn3c(=O)n(-c4ccccc4)c(=O)n3[C@H]2[C@H](O)[C@@H]2O[C@H]12 (stereo not given in full)
A. -0.115

Q. Provide only the value of recorded z-score for CCc1cc2c(nc1CC)CCN(CCC(C)=NOC(C)CN1CCCc3nc(C)c(C)cc31)C2 (stereo not given)
A. -1.28

Q. Provide only the value of recorded z-score for CN(C)C(=O)[C@@]1(Cc2ccccc2)N=C(c2ccc(OCCCO)cc2)O[C@H]1c1ccccc1CN=[N+]=[N-]
A. 0.477
